Origin of values: patent US6498163B1

MEASURED ENDPOINT: melting point

Some molecules with known melting point results, for comparison:
MOLECULE | melting point
CCOC(=O)C1CCN(c2ccc(Nc3ncc4ccc(=O)n(C5CCCCC5)c4n3)cc2)CC1 | 174 to 175 °C
CN(C)CCCN1CCN(c2ccc(Nc3ncc4ccc(=O)n(C5CCCCC5)c4n3)cc2)CC1 | 169 to 170 °C

Continue with the molecule presented below.
Query: # melting point lookup, item O=c1ccc2cnc(Nc3ccccc3)nc2n1-c1ccccc1
Reply: 300 to 302 °C

---

# TARGET OF ASSAY: cdc2/cyclinB (Homo sapiens, UniProt P06493)
# Sequence (P06493 whole entry, species assumed): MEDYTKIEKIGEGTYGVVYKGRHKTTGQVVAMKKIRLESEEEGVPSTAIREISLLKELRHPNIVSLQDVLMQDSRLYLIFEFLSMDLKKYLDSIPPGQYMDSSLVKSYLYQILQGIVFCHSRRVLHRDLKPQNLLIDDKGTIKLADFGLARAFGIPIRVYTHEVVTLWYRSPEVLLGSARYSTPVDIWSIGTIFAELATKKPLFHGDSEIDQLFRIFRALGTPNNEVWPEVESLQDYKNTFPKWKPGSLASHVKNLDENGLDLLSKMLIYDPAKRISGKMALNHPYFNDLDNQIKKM
# Sequence (P14635 whole entry partner, species assumed): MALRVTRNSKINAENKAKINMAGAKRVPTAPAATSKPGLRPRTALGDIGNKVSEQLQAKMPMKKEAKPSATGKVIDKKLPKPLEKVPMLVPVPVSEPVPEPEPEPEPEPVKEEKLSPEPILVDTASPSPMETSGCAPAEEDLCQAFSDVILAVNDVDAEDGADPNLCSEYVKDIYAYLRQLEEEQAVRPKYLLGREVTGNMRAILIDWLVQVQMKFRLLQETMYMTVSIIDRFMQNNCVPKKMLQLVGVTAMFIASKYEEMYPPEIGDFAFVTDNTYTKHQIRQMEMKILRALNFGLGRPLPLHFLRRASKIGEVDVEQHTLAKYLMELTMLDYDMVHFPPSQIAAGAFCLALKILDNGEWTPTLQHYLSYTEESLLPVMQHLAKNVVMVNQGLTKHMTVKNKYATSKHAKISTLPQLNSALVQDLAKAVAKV
# METHOD SUMMARY: Cyclin-dependent kinase assay cdc2/cyclinB (cdk1/B)
# PROTOCOL CONDITIONS: Table 1
MEASURED ENDPOINT: IC50 (µM)

A: CN(C)c1ccc(Nc2ncc3ccc(=O)n(C4CCCCC4)c3n2)cc1
B: O=c1ccc2cnc(Nc3ccccc3)nc2n1CCCOCc1ccccc1
Query: Lab notebook, comparison: A versus B , higher IC50 goes to which? // respond with label for picked entry
Reply: B
(B: 29.8 µM, A: 0.089 µM)

---

# TARGET OF ASSAY: c-Src (Homo sapiens, UniProt P12931)
# Sequence (P12931 whole entry, species assumed): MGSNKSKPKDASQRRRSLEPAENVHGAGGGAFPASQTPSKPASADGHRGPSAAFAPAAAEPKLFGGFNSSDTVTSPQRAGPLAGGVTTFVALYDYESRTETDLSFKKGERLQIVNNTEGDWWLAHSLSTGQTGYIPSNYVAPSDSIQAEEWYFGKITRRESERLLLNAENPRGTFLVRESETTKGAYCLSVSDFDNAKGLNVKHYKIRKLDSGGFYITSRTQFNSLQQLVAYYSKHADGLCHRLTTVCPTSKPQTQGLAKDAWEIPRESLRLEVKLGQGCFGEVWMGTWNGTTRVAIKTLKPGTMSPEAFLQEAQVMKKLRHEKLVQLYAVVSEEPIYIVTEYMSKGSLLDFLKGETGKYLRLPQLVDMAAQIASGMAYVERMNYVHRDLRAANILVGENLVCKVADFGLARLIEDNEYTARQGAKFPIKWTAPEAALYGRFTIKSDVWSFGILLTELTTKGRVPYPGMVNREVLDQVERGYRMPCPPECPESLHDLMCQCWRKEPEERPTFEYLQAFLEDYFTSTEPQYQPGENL
MEASURED ENDPOINT: pIC50
A value of pIC50 is the negative decimal logarithm of a concentration given in moles per litre.

Query: # pIC50 lookup, item CC1CN(c2ccc(Nc3ncc4ccc(=O)n(C5CCCCC5)c4n3)cc2)CC(C)N1CCO (stereo not shown)
Reply: 5.73

---

# TARGET OF ASSAY: PDGF-β receptor tyrosine kinase (Mus musculus, UniProt P05622)
# Construct: amplify a fragment of DNA that codes for the intracellular tyrosine kinase domain
# Sequence (P05622 599-961 limits assumed): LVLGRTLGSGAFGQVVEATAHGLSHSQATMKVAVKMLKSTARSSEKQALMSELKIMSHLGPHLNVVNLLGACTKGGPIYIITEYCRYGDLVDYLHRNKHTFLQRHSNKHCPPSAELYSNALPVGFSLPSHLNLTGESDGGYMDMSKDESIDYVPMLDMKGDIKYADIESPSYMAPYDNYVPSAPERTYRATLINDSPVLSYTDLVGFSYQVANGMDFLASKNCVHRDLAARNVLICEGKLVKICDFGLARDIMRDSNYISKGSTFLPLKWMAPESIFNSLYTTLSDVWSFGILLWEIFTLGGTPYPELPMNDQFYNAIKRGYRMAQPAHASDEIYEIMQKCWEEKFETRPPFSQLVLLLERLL
# METHOD SUMMARY: PDGF receptor tyrosine kinase assay
# PROTOCOL CONDITIONS: Table 4, Formula II compound
MEASURED ENDPOINT: pIC50
A value of pIC50 is the negative decimal logarithm of a concentration given in moles per litre.

Query: # pIC50 lookup, item CCNc1nc(Nc2ccccc2)ncc1/C=C/C(=O)OCC
Reply: 5.43

---

Where a name gives a salt, the structure may show the parent alone.
Readings of melting point for the listed compounds

Some compounds with known melting point results, for comparison:
COMPOUND | melting point
CC(C)Nc1ncc2ccc(=O)n(C)c2n1 | 148 to 149 °C
O=c1ccc2cnc(Nc3ccc(N4CCCCC4)cc3)nc2n1C1CC2CCC1C2 (centres unmarked) [Example 181] | 243 to 244 °C
COc1ccc(CNc2ncc3ccc(=O)n(C(C)C)c3n2)cc1OC | 128 °C
CCCCn1c(=O)ccc2cnc(Nc3ccccc3)nc21 | 183 to 184 °C
O=c1ccc2cnc(Nc3ccc(N4CCCCC4)cc3)nc2n1C1CCCCCC1 | 201 to 202 °C
CCC(CC)n1c(=O)ccc2cnc(Nc3ccc(N4CCN(C)CC4)cc3)nc21 | 155 to 157 °C
O=c1ccc2cnc(Nc3ccc(N4CCCC(CO)C4)cc3)nc2n1C1CCCCC1 (centres unmarked) | 194 to 195 °C
O=c1ccc2cnc(NCCCN3CCCCC3)nc2n1C1CCCCC1 | 111 to 112 °C
CCOC(=O)/C=C/c1cnc(Nc2ccccc2)nc1N | 190 to 192 °C
CCNc1nc(Nc2ccccc2)ncc1/C=C/C(=O)OCC | 125 to 126 °C

Query: # melting point lookup, item CCn1c(=O)ccc2cnc(NC(C)C)nc21 (as salt: sulfate)
Reply: 119 to 120 °C

Query: # melting point lookup, item O=c1ccc2cnc(NCc3ccccc3)nc2n1C1CCCCC1
Reply: 183 to 184 °C

Query: # melting point lookup, item CCn1c(=O)c(C)cc2cnc(Nc3ccc(N4CCC(CCCN5CCOCC5)CC4)cc3)nc21
Reply: 199 to 200 °C

Query: # melting point lookup, item O=c1ccc2cnc(Nc3ccc(SC(F)(F)F)cc3)nc2n1C1CC2CCC1C2 (centres unmarked)
Reply: 205 to 206 °C

Query: # melting point lookup, item O=c1ccc2cnc(NCCN3CCCCC3)nc2n1C1CCCCC1
Reply: 156 to 157 °C

Query: # melting point lookup, item CN1CCN(c2ccc(Nc3ncc4ccc(=O)n(CCOCc5ccccc5)c4n3)cc2)CC1
Reply: 183 to 185 °C

Query: # melting point lookup, item O=c1ccc2cnc(Nc3ccc(N4CCCCC4)cc3)nc2n1C1CC2CCC1C2 (centres unmarked) [Example 229]
Reply: 209 °C
